# Format: in vivo, healthy human subjects
# assay_setup: human, plasma, oral, C max, Treatment B: apixaban 20 mg + activated charcoal 2 h after apixaban, n = 14; geometric mean (% CV)
measurement_kind: Cmax (ng/mL)

INSERT INTO measurements (smiles_input, measurement_kind, observed) VALUES
  ('COc1ccc(-n2nc(C(N)=O)c3c2C(=O)N(c2ccc(N4CCCCC4=O)cc2)CC3)cc1', 'Cmax', 366);

---

# Format: in vivo, healthy human subjects
# assay_setup: human, plasma, oral, 20 mg, AUCINF, Treatment A: apixaban 20 mg alone, n = 18; geometric mean (% CV)
measurement_kind: AUC(0-inf) (ng·h/mL)

INSERT INTO measurements (compound, observed) VALUES
  ('COc1ccc(-n2nc(C(N)=O)c3c2C(=O)N(c2ccc(N4CCCCC4=O)cc2)CC3)cc1 [apixaban]', 4180);

---

# Type: in vivo, healthy human subjects
# assay_setup: human, plasma, oral, AUC(0–T), Treatment C: apixaban 20 mg + activated charcoal 50 g 6 h after apixaban, n = 17; geometric mean (% CV)
measurement_kind: AUC(0-t)

INSERT INTO assay_data (molecule, observed) VALUES
  ('COc1ccc(-n2nc(C(N)=O)c3c2C(=O)N(c2ccc(N4CCCCC4=O)cc2)CC3)cc1 [apixaban]', '2950 ng·h/mL');

---

# Assay type: in vivo, healthy human subjects
# assay_setup: human, plasma, oral, AUC(0–T), Treatment B: apixaban 20 mg + activated charcoal 50 g 2 h after apixaban, n = 14; geometric mean (% CV)
measurement_kind: AUC(0-t) (ng·h/mL)

INSERT INTO results (compound, observed) VALUES
  ('COc1ccc(-n2nc(C(N)=O)c3c2C(=O)N(c2ccc(N4CCCCC4=O)cc2)CC3)cc1 [apixaban]', 2010);

---

# Assay type: in vivo, healthy human subjects
# assay_setup: human, plasma, oral, T ½, Treatment B: apixaban 20 mg + activated charcoal 2 h after apixaban, n = 14; mean (SD)
measurement_kind: half-life (min)

INSERT INTO results (smiles_input, measurement_kind, observed) VALUES
  ('COc1ccc(-n2nc(C(N)=O)c3c2C(=O)N(c2ccc(N4CCCCC4=O)cc2)CC3)cc1', 'half-life', 318);

---

# Assay type: in vivo, healthy human subjects
# assay_setup: human, plasma, oral, T ½, Treatment C: apixaban 20 mg + activated charcoal 6 h after apixaban, n = 17; mean (SD)
measurement_kind: half-life

INSERT INTO assay_data (smiles_input, observed) VALUES
  ('COc1ccc(-n2nc(C(N)=O)c3c2C(=O)N(c2ccc(N4CCCCC4=O)cc2)CC3)cc1', '4.9 h');

---

# Format: in vivo, healthy human subjects
# assay_setup: human, plasma, oral, 20 mg
measurement_kind: Tmax (h)

INSERT INTO results (smiles_input, observed) VALUES
  ('COc1ccc(-n2nc(C(N)=O)c3c2C(=O)N(c2ccc(N4CCCCC4=O)cc2)CC3)cc1', 2.5);

---

# Format: in vivo, healthy human subjects
# assay_setup: human, plasma, oral, AUCINF, Treatment C: apixaban 20 mg + activated charcoal 6 h after apixaban, n = 17; geometric mean (% CV)
measurement_kind: AUC(0-inf) (ng·h/mL)

INSERT INTO results (compound, measurement_kind, observed) VALUES
  ('COc1ccc(-n2nc(C(N)=O)c3c2C(=O)N(c2ccc(N4CCCCC4=O)cc2)CC3)cc1 [apixaban]', 'AUC(0-inf)', 2980);
